molecular target: V1aR (Homo sapiens, UniProt P37288); test: Schild analysis (IP1 assay)
Sequence (P37288 whole entry): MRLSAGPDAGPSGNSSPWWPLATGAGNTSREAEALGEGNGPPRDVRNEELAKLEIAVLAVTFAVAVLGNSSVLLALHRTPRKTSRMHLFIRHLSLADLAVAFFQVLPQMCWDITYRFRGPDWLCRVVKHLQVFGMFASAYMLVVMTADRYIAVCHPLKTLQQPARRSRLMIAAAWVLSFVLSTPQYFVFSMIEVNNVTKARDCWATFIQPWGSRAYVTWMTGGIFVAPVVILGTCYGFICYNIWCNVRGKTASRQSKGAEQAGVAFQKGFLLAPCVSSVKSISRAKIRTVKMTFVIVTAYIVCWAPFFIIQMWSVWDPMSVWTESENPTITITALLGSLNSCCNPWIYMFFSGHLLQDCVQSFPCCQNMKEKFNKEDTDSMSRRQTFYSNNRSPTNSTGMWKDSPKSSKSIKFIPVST
pKi: −log10 of the molar value. Bridge positions count the residues as written; N and C are the ends. Square brackets hold non-standard residues; d marks the D form. Ends that are not written are not given here.
experimental endpoint: pKi

[[record]]
binder = "CLITNCP[dR]G-NH2 (disulfide 1-6 (inferred)) [[D-Arg8]-inotocin]"
measured = "~7.80"


These entries and their values trace back to paper PMC5286520.
